settings: in ethanol, 298.15 K
ASSAY ENDPOINT: solubility (mole fraction)
Answers are plain numbers.

Name the reported solubility (mole fraction) value associated with the compound `CCc1nnc(NC(=O)c2ccc([N+](=O)[O-])cc2)s1`
3.91e-05

###

conditions: in n-hexane, 288.15 K
ASSAY ENDPOINT: solubility (mole fraction)
Numbers only.

Which solubility (mole fraction) is reported for this molecule? `CCc1nnc(NC(=O)c2ccc([N+](=O)[O-])cc2)s1`
6.2e-06

###

details: in n-hexane, 308.15 K
ASSAY ENDPOINT: solubility (mole fraction)
One number for each entry.

Data request, read-out solubility (mole fraction), for `CCc1nnc(NC(=O)c2ccc([N+](=O)[O-])cc2)s1`
1.44e-05

###

details: in n-octanol, 293.15 K
ASSAY ENDPOINT: solubility (mole fraction)
Give bare numbers.

Can you look up the measured solubility (mole fraction) of `CCc1nnc(NC(=O)c2ccc([N+](=O)[O-])cc2)s1` for me?
5.22e-05

###

conditions: in n-octanol, 288.15 K
ASSAY ENDPOINT: solubility (mole fraction)
Numbers only.

What value of solubility (mole fraction) has been recorded for this entry: `CCc1nnc(NC(=O)c2ccc([N+](=O)[O-])cc2)s1`
4.34e-05

###

details: in n-hexane, 298.15 K
ASSAY ENDPOINT: solubility (mole fraction)
Answers are plain numbers.

Entry under review: `CCc1nnc(NC(=O)c2ccc([N+](=O)[O-])cc2)s1` . Reported solubility (mole fraction)?
9.5e-06

###

conditions: in ethanol, 303.15 K
ASSAY ENDPOINT: solubility (mole fraction)

Quick one: solubility (mole fraction) for `CCc1nnc(NC(=O)c2ccc([N+](=O)[O-])cc2)s1` ?
4.87e-05

###

conditions: in n-hexane, 313.15 K
ASSAY ENDPOINT: solubility (mole fraction)

So what's the measured solubility (mole fraction) for this one? `CCc1nnc(NC(=O)c2ccc([N+](=O)[O-])cc2)s1`
1.79e-05

###

settings: in n-hexane, 318.15 K
ASSAY ENDPOINT: solubility (mole fraction)
Give bare numbers.

Using the record for `CCc1nnc(NC(=O)c2ccc([N+](=O)[O-])cc2)s1` , report its solubility (mole fraction).
2.11e-05

###

conditions: in ethanol, 313.15 K
ASSAY ENDPOINT: solubility (mole fraction)
One number for each entry.

For the compound `CCc1nnc(NC(=O)c2ccc([N+](=O)[O-])cc2)s1` , what solubility (mole fraction) is on record?
7.34e-05

###

settings: in n-hexane, 293.15 K
ASSAY ENDPOINT: solubility (mole fraction)
Answers are plain numbers.

Name the reported solubility (mole fraction) value associated with the compound `CCc1nnc(NC(=O)c2ccc([N+](=O)[O-])cc2)s1`
7.4e-06

###

settings: in ethanol, 318.15 K
ASSAY ENDPOINT: solubility (mole fraction)

Given the entry `CCc1nnc(NC(=O)c2ccc([N+](=O)[O-])cc2)s1` , report its measured solubility (mole fraction).
8.87e-05

###

conditions: in n-octanol, 308.15 K
ASSAY ENDPOINT: solubility (mole fraction)
One number for each entry.

Form field: reported solubility (mole fraction) of `CCc1nnc(NC(=O)c2ccc([N+](=O)[O-])cc2)s1`
9.61e-05

###

conditions: in n-octanol, 303.15 K
ASSAY ENDPOINT: solubility (mole fraction)

Query: solubility (mole fraction); subject: `CCc1nnc(NC(=O)c2ccc([N+](=O)[O-])cc2)s1`
8.06e-05

###

details: in ethanol, 308.15 K
ASSAY ENDPOINT: solubility (mole fraction)
Answers are plain numbers.

Form field: reported solubility (mole fraction) of `CCc1nnc(NC(=O)c2ccc([N+](=O)[O-])cc2)s1`
5.95e-05

###

settings: in ethanol, 293.15 K
ASSAY ENDPOINT: solubility (mole fraction)
Numbers only.

// returns reported solubility (mole fraction) for input `CCc1nnc(NC(=O)c2ccc([N+](=O)[O-])cc2)s1`
3.17e-05
